Assay Setup: ASO; note: test concentration or dose not given here
These antisense oligonucleotides have a phosphorothioate backbone; sugars and methylation of C are not fully specified.
remaining target (mRNA or protein) (fraction of control) strictly under 0.7 means y; at 0.7 or over means n.

Sequence Text	Category Label
ATTTCACTGTAAACGGCT	n
TTCAAGTCTTCTTCCAAT	n
CCGCCAGAAAGACCCCAC	n
TGTCCTGGTGAGAGGCAG	n
GGGCCCAAAAGCAGCAGC	n
CTGCTTCTTCTGCTCCAA	y
GATGCGCTCCAGGTGGGA	y
ACCAGCCCCGAGCGTTTG	n
TCGGCGGTGGCAAGGCTT	n
AAATGGCCGTTTTGCTCC	n
GTCCCTGCACCCCTAGTC	n
CTTTACTTCGCCGTCCAC	y
CCAGGCTAAACCAGGCTG	y
TGCTTGTGGGCCGCGATT	y
GCCCGCACGGAGCCCTGC	n
TCTCCTTCATGCGGTTCT	y

Origin of values: the OligoGym collection
